Recorded values, source patent US12209081B2.

# IC50 per entry
Biological target: mouse TRPM3α2 (mTRPM3) ion channel (Mus musculus (Mouse), UniProt J9SQF3)
Sequence (J9SQF3 other isoform, or with tags, fused parts or gaps): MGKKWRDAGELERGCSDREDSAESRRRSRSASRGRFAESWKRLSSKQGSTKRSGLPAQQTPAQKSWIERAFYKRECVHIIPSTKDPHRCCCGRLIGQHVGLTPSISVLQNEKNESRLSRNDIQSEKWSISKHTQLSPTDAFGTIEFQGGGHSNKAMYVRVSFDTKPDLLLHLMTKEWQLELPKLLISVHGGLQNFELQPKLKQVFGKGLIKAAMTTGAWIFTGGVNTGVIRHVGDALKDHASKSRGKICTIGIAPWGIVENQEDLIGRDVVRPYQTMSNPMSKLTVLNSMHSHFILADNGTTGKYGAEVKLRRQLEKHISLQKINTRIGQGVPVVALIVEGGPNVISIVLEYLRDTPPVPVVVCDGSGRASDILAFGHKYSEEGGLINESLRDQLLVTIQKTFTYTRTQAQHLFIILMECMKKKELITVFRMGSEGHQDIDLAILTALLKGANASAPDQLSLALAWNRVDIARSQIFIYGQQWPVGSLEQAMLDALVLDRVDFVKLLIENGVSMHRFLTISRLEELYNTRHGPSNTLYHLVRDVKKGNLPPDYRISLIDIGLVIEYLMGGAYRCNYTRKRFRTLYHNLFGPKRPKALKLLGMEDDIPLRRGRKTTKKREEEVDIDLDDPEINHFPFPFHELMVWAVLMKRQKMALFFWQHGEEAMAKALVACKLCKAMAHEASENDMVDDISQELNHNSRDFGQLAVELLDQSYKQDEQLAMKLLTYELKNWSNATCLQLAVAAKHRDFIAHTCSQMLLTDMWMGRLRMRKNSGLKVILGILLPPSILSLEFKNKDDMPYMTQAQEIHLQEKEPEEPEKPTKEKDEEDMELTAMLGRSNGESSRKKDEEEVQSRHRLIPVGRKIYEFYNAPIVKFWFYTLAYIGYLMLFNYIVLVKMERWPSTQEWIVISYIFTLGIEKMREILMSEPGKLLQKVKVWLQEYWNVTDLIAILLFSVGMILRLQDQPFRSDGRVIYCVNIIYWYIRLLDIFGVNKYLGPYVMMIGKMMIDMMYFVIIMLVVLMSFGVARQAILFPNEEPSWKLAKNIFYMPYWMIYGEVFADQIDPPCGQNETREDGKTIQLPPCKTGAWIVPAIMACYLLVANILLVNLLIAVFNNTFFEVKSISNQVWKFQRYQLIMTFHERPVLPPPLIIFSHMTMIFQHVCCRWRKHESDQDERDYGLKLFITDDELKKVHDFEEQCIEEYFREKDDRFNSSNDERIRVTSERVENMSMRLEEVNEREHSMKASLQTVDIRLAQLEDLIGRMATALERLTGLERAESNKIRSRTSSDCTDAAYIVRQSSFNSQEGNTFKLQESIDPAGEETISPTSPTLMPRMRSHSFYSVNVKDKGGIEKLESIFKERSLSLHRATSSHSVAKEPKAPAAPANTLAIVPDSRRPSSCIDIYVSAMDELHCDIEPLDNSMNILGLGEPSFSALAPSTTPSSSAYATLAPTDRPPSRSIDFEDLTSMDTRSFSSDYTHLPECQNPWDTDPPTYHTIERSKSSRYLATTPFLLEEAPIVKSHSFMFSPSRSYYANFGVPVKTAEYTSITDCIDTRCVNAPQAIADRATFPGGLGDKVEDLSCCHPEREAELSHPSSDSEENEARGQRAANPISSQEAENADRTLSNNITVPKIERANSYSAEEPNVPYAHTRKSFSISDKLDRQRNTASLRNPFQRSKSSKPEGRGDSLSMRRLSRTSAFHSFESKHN
Assay: TRPM3 ion channel driven Ca2+ uptake, Fluo-4 AM assay, mTRPM3alpha2 overexpressing flip-in HEK293 cells stimulated with pregnenolone sulfate
Format: cell-based
Settings: PS (50 μM) stimulated, cpds. 608-666
QUANTITY_MEASURED: IC50

1) Cc1oc2ccc(OCc3cncs3)cc2c1C(=O)NC1(CO)CCOCC1 ... < 1000 nM
2) Cc1oc2ccc(OCc3ccnn3C)cc2c1C(=O)NC1COCC1(F)F (single isomer, unassigned) ... < 1000 nM
3) Cc1oc2ccc(OCc3nccn3C)cc2c1C(=O)NC1CNCCC1(F)F (single isomer, unassigned) [cpd 635-En 1] ... < 1000 nM
4) Cc1ncsc1COc1ccc2oc(C)c(C(=O)NC(C)(C)CC(N)=O)c2c1 ... < 1000 nM
